Source of measurements: patent US20170081400A1

Molecular target: T1, human TL1A extracellular domain with N-terminal HIS and FLAG tag (human, UniProt O95150 72-251)
T1 construct: the whole entry is named; also called TNFSF15
T1 sequence: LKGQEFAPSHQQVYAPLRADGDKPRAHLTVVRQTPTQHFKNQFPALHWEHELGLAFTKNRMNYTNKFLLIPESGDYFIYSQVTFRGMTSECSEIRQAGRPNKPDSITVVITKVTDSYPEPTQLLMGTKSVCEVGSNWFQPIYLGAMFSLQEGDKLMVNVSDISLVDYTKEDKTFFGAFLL
Test: SPR Run 7, antibody on Protein A, TL1A 5 ug/mL, timepoint 220
Experimental: 1.5. Antibody expression and antigen binding as determined by SPR. Using a CM5 sensor chip (GE Healthcare) Protein A (Pierce) was coupled to the chip surface using an amine coupling kit (GE Healthcare). Protein A was coupled on flow cell 1 and 2 (or alternatively 3 and 4) using a BIACORE® T200. […] At the end of injection of the supernatant or purified antibody the change in response units was measured. […] The response units were measured prior to the end of the dissociation phase. […]
Tick yes (1) if TL1A Binding Level (Late) is 80 RU or greater. Tick no (0) if TL1A Binding Level (Late) is less than 80 RU.

{"BINDER": "320-514 (antibody, human IgG1, name in Kabat numbering, V domains shown, full-length human IgG1, lambda) VH: QVQLVQSGAEVKKPGASVKVSCKASGYTFTSYDINWVRQAPGQGLEWMGWLNPASGNTGYAQKFQGRVTMTADRSTSTAYMELSSLRSEDTAVYYCAREVPETAAFEYWGQGTLVTVSS VL: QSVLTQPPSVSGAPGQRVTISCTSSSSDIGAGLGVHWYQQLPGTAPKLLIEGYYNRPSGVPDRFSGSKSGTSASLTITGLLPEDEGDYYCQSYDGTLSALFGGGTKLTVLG", "CATEGORY_LABEL": "yes (1)"}
{"BINDER": "320-548 (antibody, human IgG1, name in Kabat numbering, V domains shown, full-length human IgG1, lambda) VH: QVQLVQSGAEVKKPGASVKVSCKASGYTFTSYDINWVRQAPGQGLEWMGWLNPNSGNAGYAQKFQGRVTMTADRSTSTAYMELSSLRSEDTAVYYCAREVPETAAFEYWGQGTLVTVSS VL: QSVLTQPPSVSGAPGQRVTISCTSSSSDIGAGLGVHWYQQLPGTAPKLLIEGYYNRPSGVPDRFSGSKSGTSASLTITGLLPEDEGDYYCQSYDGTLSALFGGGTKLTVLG", "CATEGORY_LABEL": "no (0)"}
{"BINDER": "320-537 (antibody, human IgG1, name in Kabat numbering, V domains shown, full-length human IgG1, lambda) VH: QVQLVQSGAEVKKPGASVKVSCKASGYTFTSYDINWVRQAPGQGLEWMGWLNPNSLNTGYAQKFQGRVTMTADRSTSTAYMELSSLRSEDTAVYYCAREVPETAAFEYWGQGTLVTVSS VL: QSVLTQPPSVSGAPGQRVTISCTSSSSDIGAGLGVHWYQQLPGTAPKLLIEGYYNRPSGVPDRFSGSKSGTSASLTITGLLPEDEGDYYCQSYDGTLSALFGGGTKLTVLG", "CATEGORY_LABEL": "yes (1)"}
{"BINDER": "320-515 (antibody, human IgG1, name in Kabat numbering, V domains shown, full-length human IgG1, lambda) VH: QVQLVQSGAEVKKPGASVKVSCKASGYTFTSYDINWVRQAPGQGLEWMGWLNPSSGNTGYAQKFQGRVTMTADRSTSTAYMELSSLRSEDTAVYYCAREVPETAAFEYWGQGTLVTVSS VL: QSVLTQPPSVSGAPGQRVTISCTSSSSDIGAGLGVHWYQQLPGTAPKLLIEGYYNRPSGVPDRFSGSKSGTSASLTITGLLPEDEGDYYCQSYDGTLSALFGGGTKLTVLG", "CATEGORY_LABEL": "no (0)"}

Ask | Textbook exercise: given the entry 320-578 (antibody, human IgG1, name in Kabat numbering, V domains shown, full-length human IgG1, lambda) VH: QVQLVQSGAEVKKPGASVKVSCKASGYTFTSYDINWVRQAPGQGLEWMGWYNPNSGNTGYAQKFQGRVTMTADRSTSTAYMELSSLRSEDTAVYYCAREVPETAAFEYWGQGTLVTVSS VL: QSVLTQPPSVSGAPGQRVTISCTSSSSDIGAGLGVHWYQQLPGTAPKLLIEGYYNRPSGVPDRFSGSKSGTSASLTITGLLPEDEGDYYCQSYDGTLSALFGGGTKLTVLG , state whether its TL1A Binding Level (Late) is greater than or equal to 80 RU.
Reply | no (0)
